Data credit: paper PMC5663475

Target: T1, SLMAP FHA (residues 1–140) (human, UniProt Q14BN4 1-140)
T1 construct: SLMAP, human, FHA domain, residues 1-140; also called SLMAP FHA domain; apo-SLMAP FHA; source: E. coli BL21 (DE3)-T1R, purified (glutathione-Sepharose, TEV cleavage, Superdex 75); not shown: GST, N-terminal, cleaved
T1 sequence (looked up): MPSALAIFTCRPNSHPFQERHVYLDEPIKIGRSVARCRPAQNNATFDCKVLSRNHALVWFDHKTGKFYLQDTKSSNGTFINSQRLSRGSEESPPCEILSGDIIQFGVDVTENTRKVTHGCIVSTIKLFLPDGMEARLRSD
Test: ITC; MicroCal iTC200, 20 °C; 50 µM protein in the cell titrated with 500 µM phospho-peptide; 20 mM Tris pH 8.0, 50 mM NaCl (5% DMSO for pT325-MST2 320-329); A + B <-> AB model
Settings: both partners purified
Non-standard residues stand in square brackets, D forms with d. No end group written: not given here. pT = C[C@@H](OP(=O)(O)O)[C@H](N)C(=O)O
quantity-name: dH (kJ/mol)
Supply the numeric figure in kJ/mol, leaving out any unit text.

Completed entries (count: 3):
INSERT INTO measurements (binder, units_label, endpoint_value) VALUES
  ('ELDSH[pT]MVKT (MST2, human, linker residues 320-329; source: synthetic peptide) [pT325-MST2^320-329]', 'kJ/mol', -43.1),
  ('VESVG[pT]MRAT (MST2, human, linker residues 331-340; source: synthetic peptide) [pT336-MST2^331-340]', 'kJ/mol', -34.3),
  ('EEEDG[pT]MKRN (MST2, human, linker residues 373-382; also called pMST2; source: synthetic peptide) [pT378-MST2^373-382]', 'kJ/mol', -37.7);

// switching to the query binder
Need dH, item DEEEEDG[pT]MKRNATSPQVQRPSFMDYFDKQD (MST2, human, linker residues 371-401; source: synthetic peptide) [pT378-MST2^371-401]
-39.7
